# Study System: Recombinant Cat D (Homo sapiens (Human), UniProt P07339)
# Sequence (P07339 65-412): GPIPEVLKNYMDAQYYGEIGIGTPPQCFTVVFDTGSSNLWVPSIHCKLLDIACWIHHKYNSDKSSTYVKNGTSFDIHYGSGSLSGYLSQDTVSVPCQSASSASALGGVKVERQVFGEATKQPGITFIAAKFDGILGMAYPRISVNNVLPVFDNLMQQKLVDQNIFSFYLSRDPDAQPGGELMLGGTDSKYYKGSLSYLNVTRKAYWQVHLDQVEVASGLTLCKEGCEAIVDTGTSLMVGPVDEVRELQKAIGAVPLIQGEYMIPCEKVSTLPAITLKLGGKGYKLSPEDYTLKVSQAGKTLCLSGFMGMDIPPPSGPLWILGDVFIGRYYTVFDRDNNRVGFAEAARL
# Assay Name: In vitro enzymatic Cathepsin D (Cat D) FRET assay
# Assay type: biochemical
# Test Parameters: read-out: IC50 IP (μM) CatD
Below: a set of entries, each annotated with reported IC50.
The answer is to be given in µM; state only the numeric part.

COC[C@]12C[C@H]1[C@@](C)(c1cc(NC(=O)c3cnc(OCC(C)(F)F)cn3)cc(F)c1F)N=C(N)S2	1460

Enquiry: What does the record list as IC50 for C#CCOc1cnc(C(=O)Nc2cnc(OC)c([C@@]3(C)N=C(N)S[C@@]4(C(F)F)C[C@@H]34)c2)cn1 ?
Return: 174

Enquiry: Which IC50 value is on record for C[C@@H](Oc1cnc2c(Nc3cc(F)c(F)c([C@@]4(C)N=C(N)S[C@@]5(C(F)F)C[C@@H]45)c3)nccc2n1)c1ncco1 ?
Return: 984

Enquiry: Recorded IC50 for C#CCOc1cnc(C(=O)Nc2cc(F)c(F)c([C@@]3(C)N=C(N)S[C@@]4(CF)C[C@H]43)c2)c(C)c1 , please?
Return: 1040

FYI, the data here is from patent US20160046618A1.
